assay: chemical genetic growth profiling, strain panel (AID 1159580);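 note: tested at 20 µM; growth read once vehicle control cultures reached saturation at 30 °C; 1 = growth at the plate median or of vehicle wells; lower values mean less growth of the strain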; conditions: S. cerevisiae deletion strains, growth OD, locus YGL227W, strain vid30
Out of some 5,500 compounds screened, about 2,000 (36%) were called active. Not shown: some 18% with an inconclusive outcome. Cut-off read from the data, not from the text of the source: active = normalized growth mostly below about 0.91 (no sharp cut-off); inconclusive = no clear call, values can overlap the other calls; inactive = mostly above about 0.92. This is one part of the list.
Choose one outcome from this list and give only that: active, inactive

For this compound, state the assay outcome: CC1OC(=O)C(C(C)C)NC(=O)C(C(C)C)OC(=O)C(C(C)C)NC(=O)C(C)OC(=O)C(C(C)C)NC(=O)C(C(C)C)OC(=O)C(C(C)C)NC(=O)C(C)OC(=O)C(C(C)C)NC(=O)C(C(C)C)OC(=O)C(C(C)C)NC1=O (configuration not stated)
active

Test call for this compound, please: Cc1cc(-n2c(=O)[nH]c(=O)n(C)c2=O)ccc1Oc1ccc(SC(F)(F)F)cc1
active

Hey, what did the test say about CC1=NS(=O)(=O)c2cc(Cl)ccc2N1 ?
inactive

Test call for this compound, please: Cc1cc(O)ccc1Cl
inactive

What did the test return for COc1ccc2c3c([nH]c2c1)C(C)=NCC3 ?
inactive

// param item: COC(=O)Nc1nc2ccc(Sc3ccccc3)cc2[nH]1 ; yields the recorded call
inactive

For C[C@]12CCC(=O)C=C1CCC1C2[C@@H](O)C[C@@]2(C)C1CC[C@]2(O)C(=O)CO (some centres not stated) , what call appears in the results of this test?
inactive

Can you look up the reported call for COC(=O)Nc1nc2ccc(C(=O)c3ccccc3)cc2[nH]1 for me?
inactive

Fill in: this test's call for COC(=O)Nc1nc2ccc(S(=O)c3ccccc3)cc2[nH]1 (configuration not stated) is ___
inactive

Please share the test call associated with C#C[C@]1(OC(C)=O)CCC2C3CCC4=C/C(=N\O)CCC4C3CC[C@@]21CC (some centres not stated) .
inactive

Lab log entry: C#C[C@]1(OC(C)=O)CCC2C3CCC4=CC(=O)CC[C@@H]4C3CC[C@@]21C (some centres not stated) — outcome as called in the assay?
inactive

For COc1cccc2c1C(=O)c1c(O)c3c(c(O)c1C2=O)C[C@@](O)(C(=O)CO)C[C@@H]3O[C@H]1C[C@H](N)[C@@H](O)[C@H](C)O1 , what call appears in the results of this test?
active

---

Exercise: state measured normalized growth for each of the molecules provided.
assay: chemical genetic growth profiling, strain panel (AID 1159580); settings: S. cerevisiae deletion strains, growth OD, locus YNL322C, strain KRE1 (second series), stronger effect = lower value
Hit rate of the full screen: of about 5,500 compounds, about 2,000 (36%) were called active. About 18% were inconclusive and are not listed. The list shows a part of the results.
Lab note: write the figure by itself, no unit.

Reported normalized growth for C#C[C@]1(O)CCC2C3CCC4=CC(=O)CC[C@@H]4C3CC[C@@]21CC (stereo not given in full) : what is it?
1

Reported normalized growth, molecule CC(C)CCCC1(C)C=Cc2c(O)c3c(c(CCC(C)C)c2O1)OC12C(CC4CC1C(C)(C)OC2(CCC(C)C(=O)O)C4O)C3=O (stereo not given) : ____
1.01

Query: normalized growth; subject: COc1cc(C(=O)O[C@H]2CC[C@@]3(C)[C@@H]4CC[C@H]5[C@]6(O)C[C@H](O)[C@@]7(O)[C@@H](CN8C[C@@H](C)CC[C@H]8[C@@]7(C)O)[C@]6(O)C[C@@]53O[C@]24O)cc(OC)c1OC
0.989

Which normalized growth value is on record for COC(=O)C[C@H]1C(C)(C)C(=O)[C@@H]2CC3C4=CC(=O)O[C@@H](c5ccoc5)[C@]4(C)CCC3[C@@]1(C)C2=O (stereo not given in full) ?
0.995

Entry COc1cccc2c1C(=O)c1c(O)c3c(c(O)c1C2=O)C[C@@](O)(C(C)=O)C[C@@H]3O[C@H]1C[C@H](N)[C@H](O)[C@H](C)O1 has what normalized growth?
0.975

---

assay: chemical genetic growth profiling, strain panel (AID 1159580);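 note: tested at 20 µM; growth read once vehicle control cultures reached saturation at 30 °C; 1 = growth at the plate median or of vehicle wells; lower values mean less growth of the strain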; details: S. cerevisiae deletion strains, growth OD, locus YML016C, strain PPZ1
In all, about 5,500 compounds went through this assay and about 2,000 (36%) were called active. Roughly 18% stayed inconclusive and do not appear here. Rule as the data show it: active = normalized growth mostly below about 0.91 (no sharp cut-off); inconclusive = no clear call, values can overlap the other calls; inactive = mostly above about 0.92. This is one part of the list.
Pick one: True (active), False (inactive)

Given O=C(O)/C=C1\CCCc2ccccc2C1O (stereo unspecified) , state the outcome it received in this test.
False

Name the outcome recorded for C[C@H]1[C@H](C)CC[C@]2(CO)CC[C@]3(C)C(=CCC4[C@@]5(C)CC[C@H](O)C(C)(C)C5CC[C@]43C)[C@H]12 (stereo partly specified) in the assay.
False

Fill in: this test's call for NC(Cc1c[nH]c2ccccc12)C(=O)O (stereo unspecified) is ___
False

Given Nc1c2ccccc2nc2ccccc12 (tested in a mixture with another compound) , state the outcome it received in this test.
True

Given CC(C)CC(N(C)C)C1(c2ccc(Cl)cc2)CCC1 (stereo unspecified) , state the outcome it received in this test.
False

I'd appreciate the recorded outcome for NC12CC3CC(CC(C3)C1)C2 from this test.
False

What did the test return for COc1cc(N)c(Cl)cc1C(=O)NC1CCN(Cc2ccccc2)CC1 ?
False

Call for entry Cc1cc(O)c2c(c1)Cc1cccc(O)c1C2=O :
False

Call for entry COc1ccc2c3c([nH]c2c1)C(C)=NCC3 :
False

So what was the verdict on C/C=C(/C)C(=O)O[C@@H]1[C@H](OC(C)=O)[C@@]2(CO)C(CC1(C)C)C1=CCC3[C@@]4(C)CC[C@H](O[C@@H]5O[C@H](C(=O)O)[C@@H](O[C@@H]6O[C@H](CO)[C@@H](O)[C@H](O)[C@H]6O)[C@H](O)[C@H]5O[C@@H]5O[C@H](CO)[C@@H](O)[C@H](O)[C@H]5O)[C@](C)(CO)C4CC[C@@]3(C)[C@]1(C)C[C@H]2O (stereo partly specified) in this test?
False

// return assay outcome for N=C(N)c1ccc(OCCCCCOc2ccc(C(=N)N)cc2)cc1
False

Which result was noted for this compound in the test: COc1ccc2c(c1)c(CC(=O)OCC(=O)O)c(C)n2C(=O)c1ccc(Cl)cc1
False

For Cc1ccc(S(=O)(=O)NC(=O)NN2CC3CCCC3C2)cc1 (stereo unspecified) , which call appears in the assay record?
False

Write down the call the test reported for this compound. Item: CCC(C)C(NC)C(=O)O (stereo unspecified)
False

What outcome does the record of this test show for CC(=O)NCc1c(I)c(NC(C)=O)c(I)c(C(=O)O)c1I ?
False

Name the outcome recorded for O=C1c2c(O)cccc2Cc2cccc(O)c21 in the assay.
False

---

test: chemical genetic growth profiling, strain panel (AID 1159580);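 note: tested at 20 µM; growth read once vehicle control cultures reached saturation at 30 °C; 1 = growth at the plate median or of vehicle wells; lower values mean less growth of the strain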; details: S. cerevisiae deletion strains, growth OD, locus YAL026C, strain drs2, stronger effect = lower value
Among all 5,500 compounds or so, about 2,000 (36%) were called active. Inconclusive results (about 18%) are left out. This is one part of the list.
outcome-measure: normalized growth
No unit in the answer, only the number.

// query normalized growth value for entry NNc1nncc2ccccc12
0.973

Given the compound Nc1c2c(nc3ccccc13)CCCC2O (configuration not stated) , what is its reported normalized growth?
1.01

Can you look up the measured normalized growth of Clc1ccccc1C(c1ccccc1)(c1ccccc1)n1ccnc1 for me?
0.0665

Record request: normalized growth value, item COc1cc(N)c(Cl)cc1C(=O)NC1CCN(Cc2ccccc2)CC1
1

What normalized growth value was documented for this compound, Nc1c2ccccc2nc2ccccc12 (tested in a mixture with another compound) ?
0.541

Need normalized growth of Nc1c2c(nc3ccccc13)CCCC2 , thanks.
0.975

Please report the recorded normalized growth for FC(F)(F)c1ccccc1-n1ccnc1 .
1.02

---

experiment: chemical genetic growth profiling, strain panel (AID 1159580);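 note: tested at 20 µM; growth read once vehicle control cultures reached saturation at 30 °C; 1 = growth at the plate median or of vehicle wells; lower values mean less growth of the strain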; details: S. cerevisiae deletion strains, growth OD, locus YDL108W, strain KIN28, stronger effect = lower value
Out of some 5,500 compounds screened, about 2,000 (36%) were called active. About 18% were inconclusive and are not listed. The list shows a part of the results.
outcome-measure: normalized growth
// response body must contain only the number

Query (compound): Cc1csc(NC(=O)Nc2ccc(C(F)(F)F)cc2)c1Cl ; field requested: normalized growth
0.948

I have this compound here, COc1ccc2nc3ccccc3c(N)c2c1 , and I need its recorded normalized growth.
0.737

Query (compound): COC(=O)c1cnn(-c2c(Cl)cccc2Cl)c1C=C(C#N)C#N ; field requested: normalized growth
0.961

Dear colleague, I am looking for the recorded normalized growth of the following compound: C=CCc1c(CCC)nc(-c2ccccn2)[nH]c1=O
0.937

Form field: reported normalized growth of Cc1ccc(S(=O)(=O)n2c(Sc3ccc([N+](=O)[O-])cc3[N+](=O)[O-])nc3cc(C)ccc32)cc1
0.987

Reported normalized growth, compound O=C(NCC1COc2ccccc2O1)c1ccc(Cl)cc1 (stereo unspecified) : ____
0.951

Give its normalized growth value. Item: Cc1nc(-c2ccccn2)nc(N(C)Cc2ccccc2)c1Cl
0.951

// query normalized growth value for entry Cc1ccc(C)c(CSc2nc(C3CCCCC3)c(C#N)c(=O)[nH]2)c1
0.985

What normalized growth value was documented for this compound, O=C(CSCc1csc2ccccc12)Nc1ccc(F)c(Cl)c1 ?
0.973

Dear colleague, I am looking for the recorded normalized growth of the following compound: O=[N+]([O-])c1ccc(S(=O)(=O)c2ccccc2)nc1S(=O)(=O)c1ccccc1
0.94

Would you mind telling me what normalized growth value was observed for Cc1csc(NC(=O)Nc2ccc(C(F)(F)F)cc2)c1 ?
0.973

Form field: reported normalized growth of O=C(c1ccc(Cl)cc1)N(Cc1ccccc1)Cc1cccnc1
0.98

Suppose we examine the compound Fc1cccc(Cl)c1CSc1n[nH]c(-c2cc(C(F)(F)F)cc(C(F)(F)F)c2)n1 ; what normalized growth value has been reported?
0.97

If you can, please state the reported normalized growth value of O=C(c1cccs1)N(Cc1cccnc1)Cc1ccc(Cl)cc1Cl .
0.96

Could you tell me which normalized growth is on file for O=C(Nc1ccccc1Sc1ccc([N+](=O)[O-])cc1[N+](=O)[O-])C(Cl)(Cl)Cl ?
0.958

Form field: reported normalized growth of O=C(NCC(c1ccccc1)c1c[nH]c2ccccc12)c1ccc(C(F)(F)F)cc1 (stereo unspecified)
0.992

I would be grateful if you could share the reported normalized growth for OC1CCN(c2cc(C(F)(F)F)nc3cc(Cl)cc(Cl)c23)CC1 .
0.979

Recorded normalized growth for CCCc1nc(-c2ccccn2)[nH]c(=O)c1CC1CC1 , please?
0.956

Need normalized growth of O=S(=O)(NC(=S)Nc1ccc(Cl)c(Cl)c1)c1ccccc1 , thanks.
1

Name the recorded normalized growth for Nc1ccc(Sc2ccccc2)nc1Sc1ccccc1 .
0.958

Value lookup for normalized growth; key = Cc1nc(-c2cccnc2)nc(NCc2ccccc2)c1Cl
0.924
